# experimental-target: human p21 Activated Kinase 4 (PAK4), PAK4 (gene 10298)
# assay-explanation: NVS_ENZ_hPAK4: NovaScreen (NVS) Enzymatic Assay for human p21 Activated Kinase 4 (PAK4) (AID 2283189)
Records with an inconclusive call do not appear. Activity calls are given as the source filed them. How the source made its calls: active means hit-call score of the fitted dose curve at least 0.9, where 1 is the maximum; inconclusive means response in the unintended direction; inactive means score below 0.9.
measurement-label: outcome

| compound | experimental-target | measurement-label | result |
| --- | --- | --- | --- |
| CCCCc1oc2ccccc2c1C(=O)c1cc(I)c(OCCN(CC)CC)c(I)c1 | human p21 Activated Kinase 4 (PAK4), PAK4 (gene 10298) | outcome | inactive |
| NC(=O)N1C(=O)C(C(=O)c2cc(Cl)cs2)c2cc(F)c(Cl)cc21 (stereo not drawn) | human p21 Activated Kinase 4 (PAK4), PAK4 (gene 10298) | outcome | inactive |
| O=c1[nH]cnc2c1ncn2[C@H]1CC[C@@H](CO)O1 | human p21 Activated Kinase 4 (PAK4), PAK4 (gene 10298) | outcome | inactive |

---

# experimental-target: Peroxisome proliferator-activated receptor gamma (Homo sapiens) (UniProt P37231)
# Sequence (P37231 whole entry, looked up): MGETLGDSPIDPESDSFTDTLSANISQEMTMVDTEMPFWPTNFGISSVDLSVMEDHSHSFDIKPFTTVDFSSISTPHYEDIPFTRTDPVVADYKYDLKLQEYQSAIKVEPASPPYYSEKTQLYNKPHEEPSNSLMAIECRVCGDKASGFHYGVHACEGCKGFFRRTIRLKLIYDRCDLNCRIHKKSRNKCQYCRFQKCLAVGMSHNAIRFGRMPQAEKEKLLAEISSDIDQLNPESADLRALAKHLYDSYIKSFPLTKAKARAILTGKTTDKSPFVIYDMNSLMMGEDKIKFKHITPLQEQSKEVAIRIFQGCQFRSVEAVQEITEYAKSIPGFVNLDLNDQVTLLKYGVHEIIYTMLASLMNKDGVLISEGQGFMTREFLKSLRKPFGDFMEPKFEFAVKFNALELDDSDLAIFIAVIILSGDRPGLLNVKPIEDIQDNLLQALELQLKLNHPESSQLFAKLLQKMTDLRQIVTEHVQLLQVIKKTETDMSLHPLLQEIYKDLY
# assay-explanation: ATG_PPARg_TRANS: Attagene TRANS-FACTORIAL HepG2 Assay for human Peroxisome Proliferator-activated Receptor-gamma (PPARg) (AID 2283007)
Inconclusive results are not listed. Activity calls are given as the source filed them. How the source made its calls: active means hit-call score of the fitted dose curve at least 0.9, where 1 is the maximum; inconclusive means response in the unintended direction; inactive means score below 0.9.
Outcomes: active, inactive

| molecule | class |
| --- | --- |
| COc1cc(OC)c(OC)cc1C=O | inactive |
| CC(=O)C=Cc1ccccc1 | active |
| O=c1[nH]c(Cl)c(Cl)cc1Cl | active |
| C[N+](=O)[O-] | inactive |
| CC=Cc1ccc2c(c1)OCO2 | inactive |
| O=[N+]([O-])O | inactive |
| O=C1C=CC(=O)C=C1 | inactive |
| O=C=Nc1ccccc1 | inactive |
| O=C(CCN1CC1)OCC(CO)(COC(=O)CCN1CC1)COC(=O)CCN1CC1 | inactive |
| O=[N+]([O-])c1ccccc1Cl | inactive |
| CCCCCCC1CCOC1=O (centres undefined) | inactive |
| ClCC(Cl)Cl | inactive |
| CCC(C)c1cc(C(C)(C)C)cc(-n2nc3ccccc3n2)c1O (centres undefined) | inactive |
| Oc1ccc(C2(c3ccc(O)cc3)c3ccccc3-c3ccccc32)cc1 | inactive |
| Oc1cc(Cl)ccc1Cl | inactive |
| CC(C)[C@@H](C(=O)O[C@@H](C#N)c1cccc(Oc2ccccc2)c1)c1ccc(Cl)cc1 | inactive |
| CC(C)(O)C#N | inactive |
| COC(=O)c1ccccc1S(=O)(=O)NC(=O)Nc1nc(C)cc(C)n1 | inactive |
| CC(C)CCCCCCCOP(=O)(Oc1ccccc1)Oc1ccccc1 | active |
| [CH3][Sn]([Cl])([Cl])[Cl] | inactive |
| CCOP(=O)(OCC)Oc1ccc([N+](=O)[O-])cc1 | inactive |
| O=C(CCl)c1ccccc1 | active |
| Cc1ccc(C)c2ccccc12 | inactive |
| COc1cc(OC)nc(Oc2cccc(Oc3nc(OC)cc(OC)n3)c2C(=O)O)n1 | inactive |
| O=c1c2ccccc2c(=O)c2c1cc(Cl)c1[nH]c3c([nH]c12)c(Cl)cc1c(=O)c2ccccc2c(=O)c13 | active |
| O=CNC(N1CCN(C(NC=O)C(Cl)(Cl)Cl)CC1)C(Cl)(Cl)Cl (centres undefined) | inactive |
| Clc1ccc(-c2ccccc2)cc1 | inactive |
| S=c1[nH]c2ccccc2[nH]1 | inactive |
| Nc1ccccc1C(=O)OCCc1ccccc1 | active |
| C=CCc1ccc(OC(=O)Cc2ccccc2)c(OC)c1 | active |
| CCOP(O)OCC | inactive |
| C=CC(=O)OCC(CC)CCCC (centres undefined) | inactive |
| O=[N+]([O-])c1cc(C(F)(F)F)c(Cl)c([N+](=O)[O-])c1Cl | active |
| [Cl-].[Cl-].[Cl-].[Yb+3] | inactive |
| CCCCOP(=O)(O)OCCCC | inactive |
| O=P1(NCCCl)OCCCN1CCCl (centres undefined) | inactive |
| CC1(C)C(=O)NC(=O)NC1=O | inactive |
| CCN(CC)C(=S)S | active |
| CC(C)(C)C(O)C(Oc1ccc(-c2ccccc2)cc1)n1cncn1 (centres undefined) | active |
| CCCC=NO | inactive |
| Cc1ccc(N(SC(F)(Cl)Cl)S(=O)(=O)N(C)C)cc1 | inactive |
| Cc1ccccc1CCl | inactive |
| O=C(O)CCl | inactive |
| CCC(C)c1cc([N+](=O)[O-])cc([N+](=O)[O-])c1OC(=O)C=C(C)C (centres undefined) | active |
| Cc1ccc(OP(=O)(Oc2ccc(C)cc2)Oc2ccc(C)cc2)cc1 (tested in a mixture with another compound) | active |
| C[C@]12CC[C@H](O)C[C@H]1CC[C@@H]1[C@@H]2C[C@@H](O)[C@]2(C)[C@@H](C3=CC(=O)OC3)CC[C@]12O | active |
| O=C1Nc2ccc(Cl)cc2C(c2ccccc2)=NC1O (centres undefined) | inactive |
| O=[N+]([O-])O.O=[N+]([O-])O.[Cd] | inactive |
| C=C(Cl)CCl | inactive |
